Sourced from patent US9315498B2

target: human mGlu5a receptor (Homo sapiens (Human)); assay: Intracellular Ca2+ mobilization assay (mGlu5 PAM); assay type: cell-based; details: HEK-293 cells stably transfected with human mGlu5a; L-glutamate added at EC20 after pre-incubation with test compound; read-out: EC50 (nM) mGlu5PAM
Sequence (P41594 other isoform, or with tags, fused parts or gaps): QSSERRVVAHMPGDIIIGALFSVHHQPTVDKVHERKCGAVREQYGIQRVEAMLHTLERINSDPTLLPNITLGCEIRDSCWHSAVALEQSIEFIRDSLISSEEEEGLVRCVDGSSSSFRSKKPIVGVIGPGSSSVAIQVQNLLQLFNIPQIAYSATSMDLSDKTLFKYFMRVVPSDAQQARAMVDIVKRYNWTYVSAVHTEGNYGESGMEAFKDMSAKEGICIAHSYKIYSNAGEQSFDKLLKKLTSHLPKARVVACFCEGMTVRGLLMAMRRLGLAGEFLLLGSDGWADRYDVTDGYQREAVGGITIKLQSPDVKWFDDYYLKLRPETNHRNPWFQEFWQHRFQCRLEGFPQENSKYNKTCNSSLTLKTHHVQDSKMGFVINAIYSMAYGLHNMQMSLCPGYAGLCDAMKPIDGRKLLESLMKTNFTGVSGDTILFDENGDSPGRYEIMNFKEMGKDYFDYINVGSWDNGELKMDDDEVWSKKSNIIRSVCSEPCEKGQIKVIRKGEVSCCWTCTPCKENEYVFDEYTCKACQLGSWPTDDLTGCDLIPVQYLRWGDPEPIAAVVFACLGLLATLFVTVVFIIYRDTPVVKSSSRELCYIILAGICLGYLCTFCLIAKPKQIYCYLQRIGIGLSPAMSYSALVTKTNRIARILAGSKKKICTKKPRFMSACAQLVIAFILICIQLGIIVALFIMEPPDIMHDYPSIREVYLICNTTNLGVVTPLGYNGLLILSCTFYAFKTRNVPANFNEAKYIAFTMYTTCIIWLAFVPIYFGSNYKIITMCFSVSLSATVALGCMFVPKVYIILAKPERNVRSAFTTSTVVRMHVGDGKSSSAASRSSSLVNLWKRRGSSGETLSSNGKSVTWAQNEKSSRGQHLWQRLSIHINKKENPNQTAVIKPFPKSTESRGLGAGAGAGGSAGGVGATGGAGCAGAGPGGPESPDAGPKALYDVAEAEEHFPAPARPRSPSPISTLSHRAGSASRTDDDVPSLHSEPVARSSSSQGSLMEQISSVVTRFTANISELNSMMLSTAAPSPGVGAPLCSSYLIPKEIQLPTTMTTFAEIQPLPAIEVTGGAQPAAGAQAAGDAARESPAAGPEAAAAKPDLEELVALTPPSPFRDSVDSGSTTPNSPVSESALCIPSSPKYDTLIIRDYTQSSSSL

# Compound, EC50
data = [
    ("CC1(C)CCN(c2ccc(C#Cc3ccccc3)nn2)C(=O)C1 [Example 151]", "19 nM"),
    ("CC1(C)CCN(c2ncc(C#Cc3cc(F)ccc3F)cn2)C(=O)C1 [Example 136]", "31 nM"),
    ("CC(C)(C)C1CN(c2ccc(C#Cc3ccccc3)cn2)C(=O)O1 (racemic) [Example 8]", "17 nM"),
    ("CN1C(=O)N(c2ccc(C#Cc3ccccc3)cn2)C2CCCCC21 (centres unmarked) [Example 84]", "11 nM"),
    ("CC1(C)CN(c2ccc(C#Cc3ccccc3)nn2)C(=O)O1 [Example 152]", "15 nM"),
]
